// data source = patent US10611740B2

Here the recorded pEC50 is given for each entry.
# target.under.test: Gal4-RORγ-LBD (Homo sapiens)
# Construct: expressed in transfected cells; host or cells: HEK-293 cells (pcDNA3.1neo plasmid)
# Sequence (P51449 269-508 limits assumed): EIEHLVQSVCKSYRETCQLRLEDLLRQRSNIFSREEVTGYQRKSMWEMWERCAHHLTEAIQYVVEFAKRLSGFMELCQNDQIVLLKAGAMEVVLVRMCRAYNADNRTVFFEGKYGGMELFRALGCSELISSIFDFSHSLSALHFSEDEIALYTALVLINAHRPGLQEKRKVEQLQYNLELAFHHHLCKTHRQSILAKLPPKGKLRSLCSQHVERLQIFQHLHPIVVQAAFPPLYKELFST
# experiment: Gal4-RORγ Luciferase Reporter Assay in HEK-293T Cells
# Assay type: cell-based
# assay.conditions: HEK-293 cells, 2 μM ursolic acid
# Text: Assay procedures and results are described below. […] The cells were harvested as described above, counted, and centrifuged to obtain the desired number of cells, then re-suspended in complete growth media at 0.75×10^6 cells/mL. […] The luciferase intensity was read on an Envision plate reader (Perkin Elmer). […] The Max Response is the upper plateau in the signal as determined by line-fit using a 4-parameter logistic model in PRISM (GraphPad).
pEC50: −log10 of the molar value.

Recorded results for 4 compounds are shown here.
COc1cc(S(=O)(=O)N2C[C@H](CNS(=O)(=O)N3CC[C@H](O)C3)Oc3ccc(-c4cc(F)ccc4F)cc32)ccc1F [Compound 45E]
> 6.30
Cc1cc(Cl)cc(-c2ccc3c(c2)N(S(=O)(=O)c2cccc(C(F)(F)F)c2)C[C@H](CC2(C(=O)O)CCOCC2)O3)c1 [Compound 78B]
> 6.30
O=C(O)C1(C[C@H]2CN(S(=O)(=O)c3cccc(C(F)(F)F)c3)c3cc(-c4cc(F)cc(C(F)(F)F)c4)ccc3O2)CCOCC1 [Compound 78O]
> 6.30
O=C(O)C1(C[C@H]2CN(S(=O)(=O)c3cccc(C4CC4)c3)c3cc(-c4cc(F)ccc4F)ccc3O2)COC1 [Compound 51E]
< 5.00

Please fill in: pEC50 reported for C[C@@H](CC(=O)O)[C@H]1CN(S(=O)(=O)c2cccc(C(F)(F)F)c2)c2cc(-c3cc(F)cc(F)c3Cl)ccc2O1 [Compound 80C] = > 6.30

The measured pEC50 associated with CC(C)(C[C@H]1CN(S(=O)(=O)c2cccc(C(F)(F)F)c2)c2cc(-c3cccc(C(F)F)n3)ccc2O1)C(=O)O [Compound 32AK] reads > 6.30

The compound CO[C@@H](C)C(=O)NC[C@H]1CN(S(=O)(=O)c2cccc(C(F)(F)F)c2)c2cc(-c3cccc(F)c3Cl)ccc2O1 [Compound 30CI] showed pEC50 equal to 5.30 to 6.30

The measured pEC50 associated with COc1cc(F)cc(-c2ccc3c(c2)N(S(=O)(=O)c2cccc(C(F)(F)F)c2)C[C@H](CC2(C(=O)O)CCOCC2)O3)c1 [Compound 78R] reads > 6.30

The measured pEC50 associated with O=C(O)C1(C[C@H]2CN(S(=O)(=O)c3cncc(C(F)(F)F)c3)c3cc(-c4cc(F)cc(OC(F)F)c4)ccc3O2)COC1 [Compound 51L] reads > 6.30

Recorded result, O=C(O)C1(C[C@H]2CN(S(=O)(=O)c3cccc(C(F)(F)F)c3)c3cc(-c4cc(F)cc(Cl)c4)ccc3O2)CCOCC1 [Compound 78E] , pEC50: > 6.30
